The reported measurements were obtained from patent US20250154198A1.

Target: human IL-23R (Homo sapiens)
Construct: UniProtKB—Q5VWK5, amino acids 22-629; secretion signal of the plasmid (Promega N1371); expressed in transfected cells
Assay: Binding assay (NanoBRET displacement of fluorophore-labelled reference compound) for estimating binding affinity to human IL-23R
Conditions: Table 3-1; read-out: Ki hIL-23R
*1 amine or outer side, *2 acyl side, *3 side chain or, on linkers, in order; H or OH if unused. Where a SMILES comes first, the peptide text is derived from it. Bridges are numbered along the chain shown (N, C = ends). [ ]: non-standard residue; d: D form. Pipz(1-CH2CO,4-CH2CH2NH) = O=C(CN1CCN(CCN[*:1])CC1)[*:2]; Bip = N[C@@H](Cc1ccc(-c2ccccc2)cc1)C(=O)O; 2Nal = N[C@@H](Cc1ccc2ccccc2c1)C(=O)O; AEF = NCCOc1ccc(C[C@H](N)C(=O)O)cc1; X1 = O=C(Cc1ccc(CN[*:1])cc1)[*:2]; 3Pal = N[C@@H](Cc1cccnc1)C(=O)O; d3Pal = N[C@H](Cc1cccnc1)C(=O)O; αMeL = CC(C)C[C@](C)(N)C(=O)O; CH2COCH2 = O=C(C[*:1])C[*:2]; αMeV = CC(C)[C@](C)(N)C(=O)O; 3Amb = NCc1cccc(C(=O)O)c1; Dab = NCC[C@H](N)C(=O)O; βAla = NCCC(=O)O

compound	targetUnderTest	unitOfMeasure	qualifyingSign	Ki
CC(C)C[C@]1(C)NC(=O)[C@H](Cc2ccc3ccccc3c2)NC(=O)[C@H](Cc2ccc(OCCN)cc2)NC(=O)[C@@H]2CSCC(=O)CSC[C@H](NC(=O)[C@H](CO)NC(=O)CN3CCN(CCNC(=O)CC[C@@H](C(=O)N[C@H](CCCNC(=N)N)C(N)=O)NC1=O)CC3)C(=O)N[C@@H](Cc1c[nH]c3ccccc13)C(=O)N[C@@H](CCC(N)=O)C(=O)N2 [Compound 90] ([Pipz(1-CH2CO,4-CH2CH2NH)]SCWQC[AEF][2Nal][αMeL]E[dR]-NH2; linker 3-6 via CH2COCH2; lactam N-10)	human IL-23R (Homo sapiens)	nM	=	0.706
CC(C)C[C@]1(C)NC(=O)[C@H](Cc2ccc3ccccc3c2)NC(=O)[C@H](Cc2ccc(OCCN)cc2)NC(=O)[C@@H]2CCCNC(=O)CC[C@H](NC(=O)[C@H](CO)NC(=O)Cc3ccc(cc3)CNC(=O)CC[C@@H](C(=O)N[C@@H](CCN)C(=O)N[C@@H](Cc3cccnc3)C(N)=O)NC1=O)C(=O)N[C@@H](Cc1c[nH]c3ccccc13)C(=O)N[C@@H](CCC(N)=O)C(=O)N2	human IL-23R (Homo sapiens)	nM	=	0.0107
CC(=O)N[C@H]1CCCCNC(=O)CC[C@@H](C(=O)N[C@H](CCCNC(=N)N)C(N)=O)NC(=O)[C@](C)(CC(C)C)NC(=O)[C@H](Cc2ccc3ccccc3c2)NC(=O)[C@H](Cc2ccc(OCCN)cc2)NC(=O)[C@@H]2CSCC(=O)CSC[C@H](NC(=O)[C@H]([C@@H](C)O)NC1=O)C(=O)N[C@@H](Cc1c[nH]c3ccccc13)C(=O)N[C@@H](CCC(N)=O)C(=O)N2 [Compound 85] (Ac-KTCWQC[AEF][2Nal][αMeL]E[dR]-NH2; lactam 1-10; linker 3-6 via CH2COCH2)	human IL-23R (Homo sapiens)	nM	=	0.321
CC(C)C[C@@H]1NC(=O)[C@H](Cc2ccc3ccccc3c2)NC(=O)[C@H](Cc2ccc(OCCN)cc2)NC(=O)[C@@H]2CSCC(=O)CSC[C@H](NC(=O)[C@H](CO)NC(=O)c3cccc(c3)CNC(=O)CC[C@@H](C(=O)N[C@@H](CCCNC(=N)N)C(N)=O)NC1=O)C(=O)N[C@@H](Cc1c[nH]c3ccccc13)C(=O)N[C@@H](CCC(N)=O)C(=O)N2 [Compound 39] ([3Amb]SCWQC[AEF][2Nal]LER-NH2; linker 3-6 via CH2COCH2; lactam N-10)	human IL-23R (Homo sapiens)	nM	=	1.4
CC(C)C[C@]1(C)NC(=O)[C@H](Cc2ccc3ccccc3c2)NC(=O)[C@H](Cc2ccc(OCCN)cc2)NC(=O)[C@@H]2CSCC(=O)CSC[C@H](NC(=O)[C@H](CO)NC(=O)c3cccc(c3)CNC(=O)CC[C@@H](C(=O)N[C@@H](CCCNC(=N)N)C(=O)N[C@H](Cc3cccnc3)C(N)=O)NC1=O)C(=O)N[C@@H](Cc1c[nH]c3ccccc13)C(=O)N[C@@H](CCC(N)=O)C(=O)N2 [Compound 150] ([3Amb]SCWQC[AEF][2Nal][αMeL]ER[d3Pal]-NH2; linker 3-6 via CH2COCH2; lactam N-10)	human IL-23R (Homo sapiens)	nM	=	0.597
CC(C)C[C@]1(C)NC(=O)[C@H](Cc2ccc3ccccc3c2)NC(=O)[C@H](Cc2ccc(OCCN)cc2)NC(=O)[C@@H]2CSCC(=O)CSC[C@H](NC(=O)[C@H](CO)NC(=O)c3cccc(c3)CNC(=O)CC[C@@H](C(=O)N[C@@H](CO)C(N)=O)NC1=O)C(=O)N[C@@H](Cc1c[nH]c3ccccc13)C(=O)N[C@@H](CCC(N)=O)C(=O)N2	human IL-23R (Homo sapiens)	nM	=	4.87
CC(C)C[C@]1(C)NC(=O)[C@H](Cc2ccc3ccccc3c2)NC(=O)[C@H](Cc2ccc(OCCN)cc2)NC(=O)[C@@H]2CSCC(=O)CSC[C@H](NC(=O)[C@H](CO)NC(=O)Cc3ccc(cc3)CNC(=O)CC[C@@H](C(=O)NCCC(N)=O)NC1=O)C(=O)N[C@@H](Cc1c[nH]c3ccccc13)C(=O)N[C@@H](CCC(N)=O)C(=O)N2 [Compound 119] ([X1]SCWQC[AEF][2Nal][αMeL]E[βAla]-NH2; linker 3-6 via CH2COCH2; lactam N-10)	human IL-23R (Homo sapiens)	nM	=	0.303
CC(=O)N[C@H]1CCCCNC(=O)CC[C@@H](C(=O)N[C@@H](CCCNC(=N)N)C(N)=O)NC(=O)[C@H](CC(C)C)NC(=O)[C@H](Cc2ccc3ccccc3c2)NC(=O)[C@H](Cc2c[nH]c3ccccc23)NC(=O)[C@@H]2CSCC(=O)CSC[C@H](NC(=O)[C@H](CO)NC1=O)C(=O)N[C@@H](Cc1ccc(-c3ccccc3)cc1)C(=O)N[C@@H](CCC(N)=O)C(=O)N2 [Compound 26] (Ac-KSC[Bip]QCW[2Nal]LER-NH2; lactam 1-10; linker 3-6 via CH2COCH2)	human IL-23R (Homo sapiens)	nM	>	1000
CC(C)C[C@]1(C)NC(=O)[C@H](Cc2ccc3ccccc3c2)NC(=O)[C@H](Cc2ccc(OCCN)cc2)NC(=O)[C@@H]2CCC(=O)NCCC[C@H](NC(=O)[C@H](CO)NC(=O)c3cccc(c3)CNC(=O)CC[C@@H](C(=O)N[C@@H](CCCNC(=N)N)C(N)=O)NC1=O)C(=O)N[C@@H](Cc1c[nH]c3ccccc13)C(=O)N[C@@H](CCC(N)=O)C(=O)N2 (relative stereo)	human IL-23R (Homo sapiens)	nM	=	3.32
CC[C@H](C)[C@@H]1NC(=O)Cc2ccc(cc2)CNC(=O)CC[C@@H](C(=O)N[C@@H](CCN)C(=O)N[C@@H](Cc2cccnc2)C(N)=O)NC(=O)[C@](C)(C(C)C)NC(=O)[C@H](Cc2ccc3ccccc3c2)NC(=O)[C@H](Cc2ccc(OCCN)cc2)NC(=O)[C@@H]2CCNC(=O)CC[C@H](NC1=O)C(=O)N[C@@H](Cc1c[nH]c3ccccc13)C(=O)N[C@@H](CCC(N)=O)C(=O)N2 [Compound 157] ([X1]IEWQ[Dab][AEF][2Nal][αMeV]E[Dab][3Pal]-NH2; lactam 3-6, N-10)	human IL-23R (Homo sapiens)	nM	=	0.0117
